Tested on: MDA-MB-435 melanoma
Test: NCI-60 one-dose screen, 48 h (100 = growth as untreated, 0 = no growth, -100 = all killed)
Settings: 10 µM unless noted
Compounds without any hit were thinned out: in the full panel of roughly 83,000, 20% have a hit.

{"columns": ["Molecule", "Study System", "growth [%]"],
 "data": [
  ["Nc1ccccc1-c1ccc([N+](=O)[O-])cc1", "MDA-MB-435 melanoma", 52.4],
  ["O=C(Nc1ccc(Cl)cc1)c1cc2c(cc1O)[nH]c1ccccc12", "MDA-MB-435 melanoma", -25.6],
  ["CCC1=C(c2ccc(OC)cc2)C(C)Oc2cc(OC(C)=O)ccc21 (configuration not stated)", "MDA-MB-435 melanoma", 40.7],
  ["CCOC(=O)c1c(C)nc(C)c(C(=O)OCC)c1-c1cccnc1", "MDA-MB-435 melanoma", 111],
  ["O=c1c(O)cccn1CCCNCCCN(CCCn1cccc(O)c1=O)CCCn1cccc(O)c1=O", "MDA-MB-435 melanoma", 104],
  ["COC1CC2CCC(C)C(O)(O2)C(=O)C(=O)N2CCCCC2C(=O)OC(C(C)CC2CCC(O)C(OC)C2)CC(=O)C(C)C=C(C)C(O)C(OC)C(=O)C(C)CC(C)/C=C/C=C/C=C1C (configuration not stated)", "MDA-MB-435 melanoma", 43.6],
  ["OCc1nnn(-c2ccccc2)c1CO", "MDA-MB-435 melanoma", 114],
  ["CN1CCN(Cc2ccc(NC(=O)c3[nH]ncc3Nc3ccnc4ccnn34)cc2)CC1", "MDA-MB-435 melanoma", 56.1],
  ["Clc1cc(Cl)c(OCC#CI)cc1Cl", "MDA-MB-435 melanoma", 55.5],
  ["ClC1C2CC(c3ccccc32)C1Cl (configuration not stated)", "MDA-MB-435 melanoma", 120],
  ["COc1ccc(/C=C2\\NC(=S)NC2=O)cc1", "MDA-MB-435 melanoma", 110],
  ["O=C1c2nsnc2C(=O)c2c(F)c(F)c(F)c(F)c21", "MDA-MB-435 melanoma", -67.9]
]}

----------
Test system: SW-620 colon
Test: NCI-60 one-dose screen, 48 h (100 = growth as untreated, 0 = no growth, -100 = all killed)
Details: 10 µM unless noted
The panel holds about 83,000 compounds, 20% with a hit somewhere; the sample as a whole holds those more often.

{"columns": ["Molecule", "Study System", "Unit Abbrev", "growth"],
 "data": [
  ["CN(C)CCCN1c2nc3ccccc3cc2Sc2cc3ccccc3nc21", "SW-620 colon", "%", -93.5],
  ["O=C1C2C3C=CC(O3)C2C(=O)N1Nc1ccccc1 (stereo unspecified)", "SW-620 colon", "%", 108],
  ["O=c1ccn(C2CCCO2)c(=O)[nH]1 (stereo unspecified)", "SW-620 colon", "%", 102],
  ["O=[P@@]1(c2ccccc2)O[C@H](COCc2ccccc2)[C@@H](OCc2ccccc2)[C@H](OCc2ccccc2)[C@H]1NCc1ccccc1", "SW-620 colon", "%", 21.6],
  ["Cc1cc(=O)n2n1-c1ccc(Cl)cc1NC(=O)C2", "SW-620 colon", "%", 109],
  ["CCN(CC)CCCCNc1c2ccccc2[n+](C)c2c1[nH]c1ccccc12", "SW-620 colon", "%", -7.04],
  ["COc1ccc(/C=N\\Nc2ccc([N+](=O)[O-])cn2)cc1OC", "SW-620 colon", "%", 61.5],
  ["C[C@]12CC[C@@H]3c4ccc(O)cc4CC[C@H]3[C@@H]1CC[C@@H]2NS(=O)(=O)c1cccc(Br)c1", "SW-620 colon", "%", 81.4],
  ["CSc1nc2c(c(=O)n1C)C(c1ccccc1)C1=C(N2)/C(=C/c2ccccc2)CCC1 (stereo unspecified)", "SW-620 colon", "%", 47.1],
  ["Oc1[nH]c2ccccc2c1/C=c1/ccc2c(c1)N=C(c1cc(F)cc(F)c1)N=2", "SW-620 colon", "%", 36.4],
  ["[O-]/[N+](=C\\C=C\\c1ccccc1)c1ccccc1", "SW-620 colon", "%", 104]
]}

All figures here come from PubChem BioAssay (NCI).
